- systemUnderTest: Eukaryotic elongation factor 2 kinase (Homo sapiens) (UniProt O00418)
- Sequence (whole entry): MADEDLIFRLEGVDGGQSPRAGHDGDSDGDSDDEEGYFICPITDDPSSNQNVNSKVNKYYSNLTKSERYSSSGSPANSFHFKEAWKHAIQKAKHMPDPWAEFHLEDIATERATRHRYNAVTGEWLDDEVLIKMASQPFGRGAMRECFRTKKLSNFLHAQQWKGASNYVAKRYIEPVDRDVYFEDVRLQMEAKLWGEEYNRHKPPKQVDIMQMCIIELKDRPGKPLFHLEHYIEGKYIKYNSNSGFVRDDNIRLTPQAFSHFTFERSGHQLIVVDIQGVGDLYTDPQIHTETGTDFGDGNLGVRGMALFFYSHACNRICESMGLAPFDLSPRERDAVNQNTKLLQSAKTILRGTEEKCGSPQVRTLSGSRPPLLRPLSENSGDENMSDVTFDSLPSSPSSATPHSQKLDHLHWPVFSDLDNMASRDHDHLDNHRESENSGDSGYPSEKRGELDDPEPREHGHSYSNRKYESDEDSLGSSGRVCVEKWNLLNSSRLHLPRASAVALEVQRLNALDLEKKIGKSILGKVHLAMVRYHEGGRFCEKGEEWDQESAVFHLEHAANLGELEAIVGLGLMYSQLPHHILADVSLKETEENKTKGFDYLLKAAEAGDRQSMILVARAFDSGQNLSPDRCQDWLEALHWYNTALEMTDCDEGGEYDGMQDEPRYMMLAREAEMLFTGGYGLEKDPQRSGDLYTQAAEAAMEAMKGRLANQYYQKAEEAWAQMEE
- experimentalDetails: Inhibition of EF2K assessed as residual enzyme activity at 10 uM relative to untreated control
metric: Activity (%)

c1ccc2c(c1)[nH]c1c3cc[nH]c3ccc21 ... 92
c1ccc2c(c1)[nH]c1c2ccc2cc[nH]c21 ... 101
O=Cc1c[nH]c2ccc3c4ccccc4[nH]c3c12 ... 105
O=Cc1c[nH]c2c1ccc1c3ccccc3[nH]c12 ... 90

---

- systemUnderTest: Protein kinase C zeta type (Homo sapiens)
- experimentalDetails: Inhibition of PKCzeta assessed as residual enzyme activity at 10 uM relative to untreated control
metric: Activity (%)

O=Cc1c[nH]c2ccc3c4ccccc4[nH]c3c12 ... 91
O=Cc1c[nH]c2c1ccc1c3ccccc3[nH]c12 ... 83
c1ccc2c(c1)[nH]c1c3cc[nH]c3ccc21 ... 87
c1ccc2c(c1)[nH]c1c2ccc2cc[nH]c21 ... 91

---

- systemUnderTest: RAC-alpha serine/threonine-protein kinase (Homo sapiens)
- experimentalDetails: Inhibition of PKBalpha assessed as residual enzyme activity at 10 uM relative to untreated control
metric: Activity (%)

c1ccc2c(c1)[nH]c1c2ccc2cc[nH]c21 ... 120
O=Cc1c[nH]c2ccc3c4ccccc4[nH]c3c12 ... 112
c1ccc2c(c1)[nH]c1c3cc[nH]c3ccc21 ... 110
O=Cc1c[nH]c2c1ccc1c3ccccc3[nH]c12 ... 96

---

- systemUnderTest: MAP kinase-activated protein kinase 2 (Homo sapiens) (UniProt P49137)
- Sequence (P49137 whole entry, looked up): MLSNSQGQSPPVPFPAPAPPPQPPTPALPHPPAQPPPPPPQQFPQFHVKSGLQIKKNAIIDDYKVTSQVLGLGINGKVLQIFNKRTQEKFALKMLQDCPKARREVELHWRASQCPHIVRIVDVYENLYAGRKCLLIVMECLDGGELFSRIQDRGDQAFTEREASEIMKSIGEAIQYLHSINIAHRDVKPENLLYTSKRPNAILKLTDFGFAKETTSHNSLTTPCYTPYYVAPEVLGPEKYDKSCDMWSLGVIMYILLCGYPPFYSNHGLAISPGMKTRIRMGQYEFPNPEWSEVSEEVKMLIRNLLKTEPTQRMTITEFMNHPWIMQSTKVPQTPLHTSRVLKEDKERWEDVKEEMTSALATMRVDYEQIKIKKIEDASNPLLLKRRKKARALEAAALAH
- experimentalDetails: Inhibition of MAPKAPK2 assessed as residual enzyme activity at 10 uM relative to untreated control
metric: Activity (%)

O=Cc1c[nH]c2c1ccc1c3ccccc3[nH]c12 ... 84
O=Cc1c[nH]c2ccc3c4ccccc4[nH]c3c12 ... 95
c1ccc2c(c1)[nH]c1c2ccc2cc[nH]c21 ... 118
c1ccc2c(c1)[nH]c1c3cc[nH]c3ccc21 ... 95
